# System: hNMNAT2 transfected HT29 cell line
# Protocol description: Cell-kill assay, hNMNAT2 transfected HT29
# Condition label: Homo sapiens, HT-29, 72 h, read-out: Cytotoxicity EC50, hNMNAT2
Reported metric: pEC50
For clarity, pEC50 is expressed as the negative log10 of concentration in mol/L.

Item: NC(=O)c1csc([C@@H]2O[C@H](CO)[C@@H](O)[C@H]2O)n1 | pEC50: 4.10
